molecular target: mouse B6 class I antigens (H-2^b: D^b or K^b) on RMA-S cells (mouse); assay: RMA-S cells incubated with peptide (25 ug/ml), flow cytometry with FITC anti-D^b or anti-K^b
Binding Affinity to Mouse MHC Class I (% increase of D^b or K^b on RMA-S cells) values by entry
Provide the reading as a plain figure in %.

>>> print(df.to_string())
                                     binder  observed_measurement
0      YSSDNLYQM [WT1 peptide p221-229 (…)]                   0.8
1      QMTSQLECM [WT1 peptide p228-236 (…)]                   1.2
2  SCLESQPAI [WT1 peptide human p136-144 (…)]                    52
3  ALLPAVPSL [WT1 peptide human p10-18 (…)]                   2.2
4      CMTWNQMNL [WT1 peptide p235-243 (…)]                  33.6

In: # lookup: Binding Affinity to Mouse MHC Class I (% increase of D^b or K^b on RMA-S cells) of GCNKRYFKL [WT1 peptide p329-337 (…)]
Out: 1.2

In: Another binder to look at: NQMNLGATL [WT1 peptide p239-247 (…)]
Out: 1

In: Another binder to look at: NLYQMTSQL [WT1 peptide p225-233 (…)]
Out: 5.8
